Cited source: paper PMC8175350

Experiment: HEK293T 72 h CellTiter-Glo cytotoxicity
Settings: human, HEK293T cells
Structures can show the parent of a compound that is named as a salt.
Readout label: CC50 at 72 h (µM)
# unit: µM | format: bare number

As a guide, the following entries are already answered.
CCCCN(CCCC)CCC(O)c1cc2c(Cl)cc(Cl)cc2c2cc(C(F)(F)F)ccc12 (stereo not shown) [Halofantrine HCl] : 25.8
CN1CC2c3ccccc3Oc3ccc(Cl)cc3C2C1 (stereo not shown) [Asenapine maleate] : 23.3
COc1cc2c(Nc3ccc(Cl)c(Cl)c3F)ncnc2cc1OC[C@@H]1C[C@@H]2CN(C)C[C@@H]2C1 : 2.67

# ---- query compound ----
Return CC50 at 72 h (reported value) for this compound: COC(=O)[C@H]1[C@H]2C[C@@H]3c4[nH]c5cc(OC)ccc5c4CCN3C[C@H]2C[C@@H](OC(=O)c2cc(OC)c(OC)c(OC)c2)[C@@H]1OC
11.7

---

This listing pairs compounds with measured Emax.
Test system: SARS-CoV-2
Assay: microbe, parasite or virus in culture
Assay type: cell-based
Conditions: Severe acute respiratory syndrome coronavirus 2, HeLa-ACE2, 24 h; read-out: HeLa-ACE2 CoV-2 Sinf Average
Residues, ends and D or L forms follow the SMILES beside them. *: point of attachment. Cbz = O=C(OCc1ccccc1)*; CHN2 = [N-]=[N+]=C*
Give the value in % but do not write % after it.

Sample answers from the record:
CCOC(=O)[C@@H]1O[C@H]1C(=O)N[C@@H](CC(C)C)C(=O)N1CCN(Cc2ccc(OC)c(OC)c2OC)CC1 : 90
COc1ccc2c(O[C@@H]3C[C@H]4C(=O)N[C@]5(C(=O)NS(=O)(=O)C6CC6)C[C@H]5/C=C\CCCCN(C)C(=O)[C@@H]4C3)cc(-c3nc(C(C)C)cs3)nc2c1C : 100

Then there is this compound:
Recall and state the measured Emax for CC(C)CC(NC(=O)OCc1ccccc1)C(=O)NC(C(=O)NCC(=O)C=[N+]=[N-])C(C)C (stereo not drawn) [Z LVG CHN2] (Cbz-Leu-Val-Gly-CHN2; configuration not given here) .
87

---

List of HeLa-ACE2 uninfected cytotoxicity Sinf Average values.
Test system: HeLa-ACE2 cells
Test: Uninfected HeLa-ACE2 24 h live/dead cytotoxicity counter screen
Assay type: cell-based, human
Conditions: curve plateau at infinite concentration
Structures can show the parent of a compound that is named as a salt.

Field: example entries. Status: answers known.
CC(CN(C)C)CN1c2ccccc2CCc2ccccc21 (stereo not shown) [Trimipramine maleate] : -100%
NC1(c2ccc(-c3nc4ccn5c(=O)[nH]nc5c4cc3-c3ccccc3)cc2)CCC1 : -100%
COC(=O)C1=C(C)NC(C)=C(C(=O)OCCN2CCN(C(c3ccccc3)c3ccccc3)CC2)C1c1cccc([N+](=O)[O-])c1 (stereo not shown) : -96%

The record that follows has no HeLa-ACE2 uninfected cytotoxicity Sinf Average shown yet.
Write down HeLa-ACE2 uninfected cytotoxicity Sinf Average measured for item Cc1cccc(/C=N/Nc2cc(N3CCOCC3)nc(OCCc3ccccn3)n2)c1 [Apilimod - control]
-100%

---

Experiment: in vitro
Settings: human
Residues, ends and D or L forms follow the SMILES beside them. *: point of attachment. Cbz = O=C(OCc1ccccc1)*; CHN2 = [N-]=[N+]=C*
Each entry below carries its recorded CC50 at 72 h.

The cases that follow already have their CC50 at 72 h on record.
CCOC(=O)[C@@H]1O[C@H]1C(=O)N[C@@H](CC(C)C)C(=O)N1CCN(Cc2ccc(OC)c(OC)c2OC)CC1 [NCO 700] : > 39.8 µM
CC(C)C(=O)OC[C@H]1O[C@@H](n2ccc(NO)nc2=O)[C@H](O)[C@@H]1O [MK-4482] : > 39.8 µM

# next molecule below
Input CC(C)CC(NC(=O)OCc1ccccc1)C(=O)NC(C(=O)NCC(=O)C=[N+]=[N-])C(C)C (stereo not drawn) [Z LVG CHN2] (Cbz-Leu-Val-Gly-CHN2; configuration not given here) , output reported CC50 at 72 h.
> 39.8 µM

---

Test: Uninfected HeLa-ACE2 24 h live/dead cytotoxicity counter screen
Format: cell-based, human
Conditions: human, uninfected HeLa-ACE2 cells, geometric mean of replicates; read-out: HeLa-ACE2 uninfected cytotoxicity CC50 GeoMean
Readout label: CC50 at 24 h

Use the examples below as a reference point.
CC(C)(C)c1ccc(CSc2cnn(C(C)(C)C)c(=O)c2Cl)cc1 : > 39.8 µM
O=c1[nH]ccc2cc(OC3CCNCC3)ccc12 : > 38.7 µM
CSc1ccc(CN2CCCC(Nc3ccc4[nH]ncc4c3)C2)cc1 (centres unmarked) : > 39.8 µM
NC(N)=Nc1ncc(Cl)c2ccc(-c3cccc(C(=O)O)c3)cc12 : > 39.8 µM

Provide one value: measured CC50 at 24 h of N#Cc1cccc(C(C(=O)NCC(c2ccccc2)c2ccccc2)N(CCc2c[nH]cn2)C(=O)c2ccccc2C(=O)c2ccccc2)c1 (centres unmarked)
> 38.5 µM

---

Experiment: Uninfected Calu-3 48 h Cell-Titer Glo cytotoxicity counter screen
Conditions: human, uninfected Calu-3 cells, Calu-3 uninfected cytotoxicity CC50 GeoMean, detail block
Structures can show the parent of a compound that is named as a salt.
Measured CC50 at 48 h of individual entries

Here's what some known entries look like.
COC(=O)[C@H]1[C@H]2C[C@@H]3c4[nH]c5cc(OC)ccc5c4CCN3C[C@H]2C[C@@H](OC(=O)c2cc(OC)c(OC)c(OC)c2)[C@@H]1OC : > 28.5 µM
CCCCCCOC(=O)NC(=N)c1ccc(NCc2nc3cc(C(=O)N(CCC(=O)OCC)c4ccccn4)ccc3n2C)cc1 [Dabigatran etexilate mesilate] : > 29.9 µM

// next entry
For CC(CN(C)C)CN1c2ccccc2CCc2ccccc21 (stereo not drawn) [Trimipramine maleate] , write its CC50 at 48 h.
> 29 µM

---

Experiment: Uninfected HeLa-ACE2 24 h live/dead cytotoxicity counter screen
Type: cell-based, human
Settings: human, uninfected HeLa-ACE2 cells, reconfirmed hits; read-out: HeLa-ACE2 Uninf. cells CC50
Where a name gives a salt, the structure may show the parent alone.
Below: a set of entries, each annotated with reported CC50 at 24 h.

The examples below pair each entry with its known result.
C=Cc1cc(C(=O)Nc2ccc(C(=N)N)cc2)c(-c2ccc(C(=O)NCC3CC3)nc2C(=O)O)cc1OC : > 40 µM
O=c1nc(NO)ccn1[C@@H]1O[C@H](CO)[C@@H](O)[C@H]1O [N-hydroxycytidine] : > 37.5 µM

Now for the compound whose CC50 at 24 h we want.
Report measured CC50 at 24 h; entry is Cc1c(O)cccc1C(=O)N[C@@H](CSc1ccccc1)[C@H](O)CN1C[C@H]2CCCC[C@H]2C[C@H]1C(=O)NC(C)(C)C [Nelfinavir mesylate]
> 18 µM

---

System: HEK293T
Details: human, 72 h
Consider the following compounds and their measured HEK293T 72-hour cytotoxicty Sinf Average readings.
# unit: % | format: bare number

Here are 3 compounds together with their reported answers.
COC(CNCC(C)C)COc1c(C)csc1C(=O)CCc1ccccc1 (centres unmarked) : -100
Cc1cccc(/C=N/Nc2cc(N3CCOCC3)nc(OCCc3ccccn3)n2)c1 [Apilimod - control] : -79
CN1CCN(c2ccc(C(=O)NCc3cnc(C#N)nc3NCC(C)(C)C)cc2)CC1 : -100

Param request: HEK293T 72-hour cytotoxicty Sinf Average | system HEK293T | item N#Cc1c(N)nc(N)nc1N[C@H](c1nc2c(F)ccc(Cl)c2c(=O)n1-c1cccnc1)C1CC1
-97

Param request: HEK293T 72-hour cytotoxicty Sinf Average | system HEK293T | item CCN(CC)CCCNc1ccnc2cc(Cl)ccc12
-100

---

Test system: SARS-CoV-2
Assay: microbe, parasite or virus in culture
Assay type: cell-based
Settings: Severe acute respiratory syndrome coronavirus 2, Calu-3, geometric mean of replicates; read-out: Calu-3 CoV-2 EC50 GeoMean
Each entry below lists one item and its recorded EC50 value.
Number only, in µM; omit the unit.

Examples with answers:
CC(=N)N1CCC(Oc2ccc(N(Cc3ccc4ccc(C(=N)N)cc4c3)S(=O)(=O)CC(=O)O)cc2)CC1 [YM 60828] : 3.18
CC(C)(C)c1ccc(CSc2cnn(C(C)(C)C)c(=O)c2Cl)cc1 [Pyridaben] : 0.205

Let's switch to this compound now.
Look up and state reported EC50 for CCOc1ccc(Cc2nc3cc(N(C)S(=O)(=O)c4cccs4)ccc3n2CC2CCCCC2)nc1 [AZ-11713908]
3.53

---

Assay: in vitro
Conditions: human, Calu-3 uninfected cytotoxicity CC50 GeoMean
Entries and their measured CC50 at 48 h follow.

Nc1nc(Nc2ccc3c(c2)CC[C@@H](N2CCCC2)CC3)nn1-c1cc2c(nn1)-c1ccccc1CCC2 : 19 µM
N#Cc1c(N)nc(N)nc1N[C@H](c1nc2c(F)ccc(Cl)c2c(=O)n1-c1cccnc1)C1CC1 : > 29.9 µM
O=c1nc(NO)ccn1[C@@H]1O[C@H](CO)[C@@H](O)[C@H]1O [N-hydroxycytidine] : 29.9 µM
COC(CNCC(C)C)COc1c(C)csc1C(=O)CCc1ccccc1 (centres unmarked) : > 29.1 µM
COc1ccc2c(c1)[C@]1(C[C@H]1c1ccc3c(/C=C/c4ccc(CN5C[C@@H](C)O[C@@H](C)C5)cc4)n[nH]c3c1)C(=O)N2 : > 19.8 µM
Cc1cccc(/C=N/Nc2cc(N3CCOCC3)nc(OCCc3ccccn3)n2)c1 : > 22.7 µM
Cc1cccc(/C=N/Nc2cc(N3CCOCC3)n3nc(-c4ccncc4)cc3n2)c1 : > 27 µM

Now for a further compound.
Name the recorded CC50 at 48 h of the item CCN(CC)CCCNc1ccnc2cc(Cl)ccc12 in your answer.
> 29.3 µM
